# Tested System: T1, IL-18Rα/β heterodimer (Fc fused human IL-18Rα mixed with Fc fused human IL-18Rβ) (human, UniProt Q13478 19-329; O95256 20-356, limits assumed)
# T1 construct: Alpha and beta Fc fusions were mixed and pre-incubated for 30 min before capture on anti-human IgG; also called alpha/beta heterodimer IL-18 receptor; heterodimeric human IL-18 receptor alpha (CD218a) and IL-18R accessory protein (IL-18RAP/CDw218b); not shown: Fc
# T1 sequence (looked up) 1: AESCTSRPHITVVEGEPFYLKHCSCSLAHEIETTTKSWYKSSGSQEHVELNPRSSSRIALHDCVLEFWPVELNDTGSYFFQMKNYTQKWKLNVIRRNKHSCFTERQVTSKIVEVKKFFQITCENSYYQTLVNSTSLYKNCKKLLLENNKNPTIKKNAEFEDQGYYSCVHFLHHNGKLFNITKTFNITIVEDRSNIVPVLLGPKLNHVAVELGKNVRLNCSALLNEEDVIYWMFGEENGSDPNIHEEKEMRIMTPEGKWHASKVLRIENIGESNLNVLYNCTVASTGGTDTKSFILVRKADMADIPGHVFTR
# T1 sequence (looked up) 2: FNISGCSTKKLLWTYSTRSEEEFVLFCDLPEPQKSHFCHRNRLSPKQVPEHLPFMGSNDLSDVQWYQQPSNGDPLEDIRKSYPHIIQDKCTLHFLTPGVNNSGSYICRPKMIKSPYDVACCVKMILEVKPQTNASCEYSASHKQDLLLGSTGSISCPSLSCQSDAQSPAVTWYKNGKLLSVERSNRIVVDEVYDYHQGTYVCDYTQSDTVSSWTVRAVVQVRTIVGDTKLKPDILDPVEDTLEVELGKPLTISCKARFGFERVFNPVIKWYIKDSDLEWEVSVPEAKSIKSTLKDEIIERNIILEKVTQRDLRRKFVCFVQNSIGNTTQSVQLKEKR
# Assay: SPR, Fc-IL-18Rα/β captured, heterogeneous ligand fit
Each item that follows carries a reported koff.
Express it in s⁻¹; write the number only.

Binder: IL-18 variant SEQ ID NO: 57 (E6K, C38S, K53A) (ligand) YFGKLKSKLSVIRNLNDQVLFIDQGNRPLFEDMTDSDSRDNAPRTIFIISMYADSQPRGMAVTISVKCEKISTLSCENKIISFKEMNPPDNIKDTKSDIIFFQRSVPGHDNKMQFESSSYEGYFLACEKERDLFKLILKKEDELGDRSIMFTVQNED
Measured Number: 0.000816

Kindly review the next binder as well.
Query string: Entry IL-18 variant SEQ ID NO: 57 with 30 kDa PEG (E6K, C38S, K53A, C68-30kDPEG) (ligand, 30 kDa PEG on Cys 68 (C68-30kDPEG), also called 57 + PEG30; 57 + PEG) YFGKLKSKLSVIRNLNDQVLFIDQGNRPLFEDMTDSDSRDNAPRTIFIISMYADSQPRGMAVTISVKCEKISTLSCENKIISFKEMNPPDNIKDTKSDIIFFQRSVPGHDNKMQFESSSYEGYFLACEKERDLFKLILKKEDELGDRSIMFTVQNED has what koff?
Result string: 0.000787
